system: Collagen I (COL1A1) in LX-2 cells; assay: Collagen and Alpha-SMA in LX-2 (Western blot after TGF-β stimulation); type: cell-based; conditions: Homo sapiens, 4 ng/ml TGF-β for 48 hours, Collagen I normalized to GAPDH;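 further: cells serum-starved in 0.4% FBS before treatment, lysates analysed by Western blot, DMSO-only wells as blank and TGF-β alone as maximal induction control, three independent experiments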
Each entry below lists one item and its recorded IC50 value.

Record summary for O=C(Nc1ccc(N2CCNCC2)cc1)c1c[nH]c(-c2c(-c3ccc(F)cc3)ncn2CC(F)(F)F)n1 : reported IC50 = < 0.1 nM

Record summary for CC(C)n1cnc(-c2ccc(F)cc2)c1-c1nc(C(=O)Nc2ccc(N3CCN(CC(F)(F)F)CC3)cc2)c[nH]1 : reported IC50 = 0.1 to 1 nM

Record summary for CN1[C@@H]2CC[C@H]1CN(c1ccc(NC(=O)c3c[nH]c(-c4c(-c5ccc(F)cc5)ncn4CC(F)(F)F)n3)cc1)C2 : reported IC50 = < 0.1 nM

Record summary for CC(C)n1cnc(-c2ccc(F)cc2)c1-c1cccc(C(=O)Nc2ccc(N3CCN(C)CC3)cc2)n1 : reported IC50 = 0.1 to 1 nM

Record summary for CN1CCN(c2ccc(NC(=O)c3c[nH]c(-c4c(-c5ccc(F)cc5)ncn4CC(F)(F)F)n3)cc2)CC1 : reported IC50 = < 0.1 nM

Record summary for CC(C)n1cnc(-c2ccc(F)cc2)c1-c1nc(C(=O)Nc2ccc(N3CCN(C)C(=O)C3)cc2)c[nH]1 : reported IC50 = 0.1 to 1 nM

Record summary for CC(C)n1cnc(-c2ccc(F)cc2)c1-c1cccc(C(=O)Nc2ccc(CCC(=O)O)cc2)n1 : reported IC50 = 0.1 to 1 nM

Record summary for CC(C)n1cnc(-c2ccc(F)c(F)c2)c1-c1nc(C(=O)Nc2ccc(N3CCN(C)CC3)cc2)c[nH]1 : reported IC50 = < 0.1 nM

Record summary for CC(C)n1cnc(-c2ccc(F)cc2)c1-c1nc(C(=O)Nc2ccc(N(CCO)CCO)cc2)c[nH]1 : reported IC50 = 0.1 to 1 nM

Record summary for CC(C)n1cnc(-c2ccc(F)cc2)c1-c1ccc(C(=O)Nc2ccc(CCO)cc2)o1 : reported IC50 = 0.1 to 1 nM

Data origin, for the record: patent US11530197B2
